Origin of values: ChEMBL document CHEMBL1155910

System: Helicobacter pylori
EXPERIMENTAL_DETAILS: Antibacterial activity against wild type Helicobacter pylori by NCCLS method
Assay type: functional
I'd be grateful if you could share measured MIC for these entries.
Could you give me the number in µg/mL? Just the number is fine.

Query: Quickly give me recorded MIC for `Cc1oc(S(C)(=O)=O)cc1-c1c2c(=O)n(C)c(=O)n(CC3CC3)c2nn1Cc1cn(C)c2ccc(Cl)cc12`
Reply: 1

Query: Output measured MIC for this item: `Cn1cc(S(C)(=O)=O)nc1-c1c2c(=O)n(C)c(=O)n(CC3CC3)c2nn1Cc1ccnc2ccc(Cl)cc12`
Reply: 16

Query: Supply reported MIC belonging to this compound: `Cn1cc(S(C)(=O)=O)cc1-c1c2c(=O)n(C)c(=O)n(CC3CC3)c2nn1Cc1cn(C)c2ccc(Cl)cc12`
Reply: 16

Query: Query MIC for `Cn1cc(C#N)cc1-c1c2c(=O)n(C)c(=O)n(CC3CC3)c2nn1Cc1ccnc2ccc(Cl)cc12`
Reply: 0.5

Query: Fill in reported MIC for this entry: Cn1cc([S+](C)[O-])cc1-c1c2c(=O)n(C)c(=O)n(CC3CC3)c2nn1Cc1c[nH]c2ccc(Cl)cc12 (stereo not drawn)
Reply: 16

Query: Return reported MIC. Input compound: `CNS(=O)(=O)c1cc(-c2c3c(=O)n(C)c(=O)n(CC4CC4)c3nn2Cc2ccnc3ccc(Cl)cc23)n(C)c1`
Reply: 16

Query: Return value of MIC for input `Cn1cc(S(C)(=O)=O)cc1-c1c2c(=O)n(C)c(=O)n(CC3CC3)c2nn1Cc1ccnc2ccc(Cl)cc12` , no commentary.
Reply: 2

Query: Supply reported MIC belonging to this compound: Cn1cc([S+](C)[O-])cc1-c1c2c(=O)n(C)c(=O)n(CC3CC3)c2nn1Cc1ccnc2ccc(Cl)cc12 (stereo not drawn)
Reply: 16

Query: Hello, please tell me recorded MIC for this one: `CNS(=O)(=O)c1cc(-c2c3c(=O)n(C)c(=O)n(CC4CC4)c3nn2Cc2c[nH]c3ccc(Cl)cc23)n(C)c1`
Reply: 16

Query: Given the compound `CONS(=O)(=O)c1cc(-c2c3c(=O)n(C)c(=O)n(CC4CC4)c3nn2Cc2c[nH]c3ccc(Cl)cc23)n(C)c1` , write its reported MIC.
Reply: 8

Query: Tell me measured MIC for `Cc1oc(S(C)(=O)=O)cc1-c1c2c(=O)n(C)c(=O)n(CC3CC3)c2nn1Cc1ccnc2ccc(Cl)cc12` please.
Reply: 4

Query: Give MIC for `Cn1cc(S(C)(=O)=O)nc1-c1c2c(=O)n(C)c(=O)n(CC3CC3)c2nn1Cc1c[nH]c2ccc(Cl)cc12`
Reply: 16

Query: Dear colleague, please send me the reported MIC for `Cn1c(=O)c2c(-c3oc(S(C)(=O)=O)cc3Cl)n(Cc3ccnc4ccc(Cl)cc34)nc2n(CC2CC2)c1=O` when you can.
Reply: 4

Query: Look up and state reported MIC for `CONS(=O)(=O)c1cc(-c2c3c(=O)n(C)c(=O)n(CC4CC4)c3nn2Cc2ccnc3ccc(Cl)cc23)n(C)c1`
Reply: 16

Query: State, in one line, measured MIC of `Cn1cc(S(C)(=O)=O)cc1-c1c2c(=O)n(C)c(=O)n(CC3CC3)c2nn1Cc1c[nH]c2ccc(Cl)cc12`
Reply: 4

Query: Determine its reported MIC: `Cn1cc(S(N)(=O)=O)cc1-c1c2c(=O)n(C)c(=O)n(CC3CC3)c2nn1Cc1ccnc2ccc(Cl)cc12`
Reply: 32
